target entity: WWP2^HECT (Homo sapiens)
Construct: GST-TEV (N, cleaved yes); made in house; host or cells: Escherichia coli BL21 (DE3)
Sequence (O00308 492-865): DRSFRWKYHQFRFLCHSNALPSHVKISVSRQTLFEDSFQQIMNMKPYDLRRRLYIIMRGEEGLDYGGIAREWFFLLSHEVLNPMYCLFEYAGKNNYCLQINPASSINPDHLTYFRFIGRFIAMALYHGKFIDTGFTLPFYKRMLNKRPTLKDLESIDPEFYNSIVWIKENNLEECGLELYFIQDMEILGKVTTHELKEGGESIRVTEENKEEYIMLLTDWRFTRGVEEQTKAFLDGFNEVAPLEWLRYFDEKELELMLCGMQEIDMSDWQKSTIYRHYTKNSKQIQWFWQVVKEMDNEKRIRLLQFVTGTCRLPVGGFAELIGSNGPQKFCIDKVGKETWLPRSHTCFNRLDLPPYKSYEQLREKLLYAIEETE
assay details: Naive Library Presenter Screening (phage, NGS), WWP2^HECT
Assay type: binding
study conditions: WWP2 target concentration 30 nM
Numbered stars: 1 amine (or outer) side, 2 acyl side, 3 side chain; on linkers, the order of the positions; unused ones are H or OH. Bridge positions count the residues as written; N and C are the ends. Ends that are not written are not given here. Phenylene(1,4-NHCOCH2)2 = O=C(C[*:1])Nc1ccc(NC(=O)C[*:2])cc1
Listed next: entries and their corresponding interaction data at Target Concentration 30.
assay metric: interaction data at Target Concentration 30

{"query sequence": "DPATWDCNVAAHRCWFL (linker 7-14 via Phenylene(1,4-NHCOCH2)2 (inferred); not fully specified (C-terminus))", "measured": 0}
{"query sequence": "DPALIHCRAAADTCAFW (linker 7-14 via Phenylene(1,4-NHCOCH2)2; not fully specified (C-terminus))", "measured": 318}
{"query sequence": "DPALWECMTAADWCMFM (linker 7-14 via Phenylene(1,4-NHCOCH2)2; not fully specified (C-terminus))", "measured": 24}
{"query sequence": "DPATYYCEAAAETCRFF (linker 7-14 via Phenylene(1,4-NHCOCH2)2 (inferred); not fully specified (C-terminus))", "measured": 57}
{"query sequence": "DPALLHCMAAAQTCSFF (linker 7-14 via Phenylene(1,4-NHCOCH2)2; not fully specified (C-terminus))", "measured": 47}
{"query sequence": "DPAIQNCRSAADVCMFF (linker 7-14 via Phenylene(1,4-NHCOCH2)2; not fully specified (C-terminus))", "measured": 65}
